ASSAYED_TARGET: Recombinant human JAK2 catalytic domain (Homo sapiens (Human), UniProt O60674)
Sequence (O60674 849-1124): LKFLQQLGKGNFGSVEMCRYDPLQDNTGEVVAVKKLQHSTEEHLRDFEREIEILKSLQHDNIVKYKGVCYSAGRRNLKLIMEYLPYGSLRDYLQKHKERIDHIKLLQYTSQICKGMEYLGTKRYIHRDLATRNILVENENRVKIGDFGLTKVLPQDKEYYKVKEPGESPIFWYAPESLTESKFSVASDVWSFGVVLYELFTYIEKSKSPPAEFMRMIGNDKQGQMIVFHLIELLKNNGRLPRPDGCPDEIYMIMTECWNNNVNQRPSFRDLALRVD
TEST_METHOD_NOTES: JAK2 kinase assay (Z'-LYTE, Tyr 6 Peptide)
Format: biochemical
SETTINGS: read-out: IC50 in JAK2 kinase assay
Can you tell me IC50 for the items I'm about to list?

Lookup: State the recorded IC50 for this entry: N#Cc1ccc(N(C2CC2)[C@@H]2CCN(c3ncnc4[nH]ccc34)C2)nc1 [Compound 41]
Found: 1 to 100 nM

Lookup: Look up IC50 for this compound: CN(c1cc2cn[nH]c2cn1)[C@@H]1CCN(c2ncnc3[nH]ccc23)C1 [Compound 125]
Found: 1 to 100 nM

Lookup: So what's the measured IC50 for this one? COc1cc2ncnc(N(C)[C@@H]3CCN(c4ncnc5[nH]ccc45)C3)c2cc1OC [Compound 86]
Found: 1 to 100 nM

Lookup: Would you mind telling me what IC50 value was observed for CN(c1ccc(C#N)cc1Br)[C@@H]1CCN(c2ncnc3[nH]ccc23)C1 [Compound 115] ?
Found: 100 to 1000 nM

Cited source for all entries: patent US9346810B2
